TEST_SYSTEM: native PcrV on live Pseudomonas aeruginosa (strains O6-57/66, O11-PA103, O1-52/66, O16-177/81) (Pseudomonas aeruginosa)
METHOD_DESCRIPTION: cell-based or functional assay
A collection of binders and their measured RBC lysis assay IC50 (P. aeruginosa strain 57/66(O6))
Quote the value and follow it with the unit of measurement.

8C1 (antibody, V domains shown, also called optimized anti-PcrV mAb clone 8C1) VH: EVQLLESGGGLVQPGGSLRLSCTASGFTFSDNHMSWVRQAPGKGLDWVSGISESGGSTNYADSVKGRFSTSRDNSKSTLYLDMNSLRAEDTAIYYCAKGRFSTNSAHFFRAVYGMDVWGQGTAVTVSS VL: DIQLTQSPSSLSASVGDRVTITCRASQGISSYLAWYQQKPGKAPKLLIYAASTLQSGVPSRFSGSGSGTDFTLTISSLQPEDFATYYCQQLSSYPLTFGGGTKVEIK ... 0.12 mg/L
2B1 (antibody, V domains shown, also called optimized anti-PcrV mAb clone 2B1) VH: EVQLLESGGGLVQPGGSLRLSCTASGFTFSSYPMSWVRQAPGKGLDWVSGISESGGSTNYADSVKGRFSTSRDNSKSTLYLDMNSLRAEDTAIYYCAKGRFSGESHHFFRAVYGMDVWGQGTAVTVSS VL: DIQLTQSPSSLSASVGDRVTITCRASQGISSYLAWYQQKPGKAPKLLIYAASTLQSGVPSRFSGSGSGTDFTLTISSLQPEDFATYYCQQLSSYPLSFGGGTKVEIK ... 0.12 mg/L
7B1 (antibody, V domains shown, also called 7B1-IgG1; 7B1 mAb) VH: EVQLLESGGGLVQPGGSLRLSCTASGFTFSDNYMSWVRQAPGKGLDWVSVISESGGSTNYADSVKGRFSTSRDNSKSTLYLDMNSLRAEDTAIYYCAKGRFSTLSSHFFRAVYGMDVWGQGTAVTVSS VL: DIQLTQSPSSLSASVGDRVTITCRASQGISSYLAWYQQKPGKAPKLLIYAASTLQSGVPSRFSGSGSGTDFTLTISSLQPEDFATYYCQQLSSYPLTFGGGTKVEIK ... 0.1 mg/L

Next, consider the following binder.
Supply RBC lysis assay IC50 (P. aeruginosa strain 57/66(O6)) value. Item: 3A9 (antibody, V domains shown, also called optimized anti-PcrV mAb clone 3A9) VH: EVQLLESGGGLVQPGGSLRLSCTASGFTFSDYSMSWVRQAPGKGLDWVSGISESGGSTNYADSVKGRFSTSRDNSKSTLYLDMNSLRAEDTAIYYCAKGRFSDSTKHFFRAVYGMDVWGQGTAVTVSS VL: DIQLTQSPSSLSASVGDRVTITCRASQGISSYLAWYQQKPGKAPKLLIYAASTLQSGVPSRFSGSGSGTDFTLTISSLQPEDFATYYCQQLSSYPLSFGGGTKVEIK
0.23 mg/L
